- system-name: human melanocortin 5 receptor (human) (UniProt P33032)
- Sequence (P33032 whole entry): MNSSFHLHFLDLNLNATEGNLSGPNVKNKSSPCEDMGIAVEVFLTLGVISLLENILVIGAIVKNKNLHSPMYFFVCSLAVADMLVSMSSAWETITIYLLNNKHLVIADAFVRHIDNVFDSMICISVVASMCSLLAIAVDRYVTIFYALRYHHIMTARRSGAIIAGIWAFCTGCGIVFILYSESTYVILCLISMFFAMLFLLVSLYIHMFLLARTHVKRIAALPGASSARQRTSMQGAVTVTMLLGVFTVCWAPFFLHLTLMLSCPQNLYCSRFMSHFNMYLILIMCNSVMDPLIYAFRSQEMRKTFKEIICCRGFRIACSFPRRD
- method: radioligand competition, [I125]-NDP-α-MSH, hMC5-R membranes
measure-name: pKi
Numbers only, as −log10 of the molar value.

Dear colleague, I am looking for the recorded pKi of the following binder: XDHXRXK (N-terminal acetyl; Nle at 1 (X); D-Nal 2 at 4 (X); Nal 2 at 6 (X); cyclo(Asp 2 to Lys 7); free C-terminal acid) [Ac-Nle-cyclo(Asp-His-D-Nal 2-Arg-Nal 2-Lys)-OH]
9.70

Recorded values, source patent US20090081197A1.
